Assay: Therapeutic index expressed as the ratio between CC50 and EC50
Type: cell-based
Details: human, HEp-2 cells; read-out: Therapeutic index
I'd appreciate it if you could supply selectivity ratio values for the items below.
Please reply with the value in numeric form only.

Ask | Quick one: selectivity ratio of C=C(C)n1c(=O)n(Cc2nc3ccccc3n2CCC(C)O)c2ccccc21 (stereo not given) ?
Reply | 6130

Ask | Quick one: selectivity ratio of `C=C(C)n1c(=O)n(Cc2nc3ccccc3n2CCCS(C)(=O)=O)c2ccccc21` ?
Reply | 4110

Ask | Quick one: selectivity ratio of `CC(C)CCn1c(Cn2c(=O)n(S(=O)(=O)N(C)C)c3ccccc32)nc2ccccc21` ?
Reply | 437

Ask | Quick one: selectivity ratio of `CC(C)CCn1c(Cn2c(=O)n(Cc3ccc(O)cc3)c3ccccc32)nc2ccccc21` ?
Reply | 3330

Ask | Quick one: selectivity ratio of `C=C(C)n1c(=O)n(Cc2nc3ccccc3[nH]2)c2ccccc21` ?
Reply | 38
